test system: GLXMAW (Soybean, Williams); assay: Preemergence herbicidal evaluation; assay type: in vivo, Glycine max, (L.) Merr. cv Williams; conditions: rate 0.0313 kg/ha; rated 4-5 weeks after treatment
assayEndpoint: Preemergence herbicidal rating GLXMAW
One number for each entry.

Before answering, review these 5 worked examples.
INSERT INTO results (molecule, reported) VALUES
  ('C#CCOC(=O)CC1SC(=Nc2cc(-n3c(=O)cc(C(F)(F)F)n(C)c3=O)c(F)cc2Cl)N(CC=C)C1=O (centres unmarked) [Compound 67]', 1.0),
  ('C[C@@H](C(=O)O)N1C(=O)CS/C1=N/c1cc(-n2c(=O)cc(C(F)(F)F)n(C)c2=O)c(F)cc1Cl [Compound 51]', 0.0),
  ('CCOC(=O)CN1C(=O)C(Cc2ccccc2OCC(=O)O)S/C1=N/c1cc(-n2c(=O)cc(C(F)(F)F)n(C)c2=O)c(F)cc1Cl (centres unmarked) [Compound 113]', 1.0),
  ('CC(C)C[C@@H](C(=O)O)N1C(=O)CSC1=Nc1cc(-n2c(=O)cc(C(F)(F)F)n(C)c2=O)c(F)cc1Cl [Compound 71]', 0.0),
  ('CCOC(=O)CN1C(=O)CN(C)C1=Nc1cc(-n2c(=O)cc(C(F)(F)F)n(C)c2=O)c(F)cc1Cl [Compound 25]', 0.0);

// for each molecule in input: emit Preemergence herbicidal rating GLXMAW
1. CCOC(=O)CN1C(=O)C(CC(=O)Nc2ccccc2)SC1=Nc1cc(-n2c(=O)cc(C(F)(F)F)n(C)c2=O)c(F)cc1Cl (centres unmarked) [Compound 68]
2. C[C@H](C(=O)O)N1C(=O)CSC1=Nc1cc(-n2c(=O)cc(C(F)(F)F)n(C)c2=O)c(F)cc1Cl [Compound 70]
3. CCOC(=O)CN1CC(=O)N(CC(=O)OCC)C1=Nc1cc(-n2c(=O)cc(C(F)(F)F)n(C)c2=O)c(F)cc1Cl [Compound 34]

## Output
[0.0, 0.0, 0.0]

// for each molecule in input: emit Preemergence herbicidal rating GLXMAW
1. COC(=O)C(Cc1ccc(Cl)cc1)N1C(=O)CSC1=Nc1cc(-n2c(=O)cc(C(F)(F)F)n(C)c2=O)c(F)cc1Cl (racemic) [Compound 77]
2. CCOC(=O)CN1C(=O)C(CC(=O)OC)S/C1=N/c1cc(-n2c(=O)cc(C(F)(F)F)n(C)c2=O)c(F)cc1Cl (centres unmarked) [Compound 54]
3. C=CCN1C(=O)C(CC(=O)OC)SC1=Nc1cc(-n2c(=O)cc(C(F)(F)F)n(C)c2=O)c(F)cc1Cl (centres unmarked) [Compound 64]

## Output
1. 0.0
2. 0.5
3. 0.0

----------
Tested on: SETVI (Foxtail, Green)
Experiment: Preemergence herbicidal evaluation
Assay type: in vivo, Setaria viridis
Conditions: rate 0.0625 kg/ha; rated 4-5 weeks after treatment
From the text: Results of herbicide evaluation are expressed on a rating scale (0-9). The scale is based upon a visual observation of plant stand, vigor, malformation, size, chlorosis and overall plant appearance as compared with a control. […] The compounds evaluated are reported by compound number given in Example 37.
assayEndpoint: Preemergence herbicidal rating SETVI
Numbers only.

INSERT INTO results (molecule, measurementtarget, reported) VALUES
  ('C[C@H](C(=O)O)N1C(=O)CSC1=Nc1cc(-n2c(=O)cc(C(F)(F)F)n(C)c2=O)c(F)cc1Cl [Compound 70]', 'SETVI (Foxtail, Green)', 2.0),
  ('COC(=O)CCCN1C(=O)CSC1=Nc1cc(-n2c(=O)cc(C(F)(F)F)n(C)c2=O)c(F)cc1Cl [Compound 29]', 'SETVI (Foxtail, Green)', 0.0),
  ('COC(=O)C(C)OC(=O)CN1C(=O)CSC1=Nc1cc(-n2c(=O)cc(C(F)(F)F)n(C)c2=O)c(F)cc1Cl (stereo not shown) [Compound 116]', 'SETVI (Foxtail, Green)', 0.0),
  ('C#CCOC(=O)CN1C(=O)CSC1=Nc1cc(-n2c(=O)cc(C(F)(F)F)n(C)c2=O)c(F)cc1Cl [Compound 115]', 'SETVI (Foxtail, Green)', 0.0),
  ('CC(C)S(=O)(=O)NC(=O)CC1SC(=Nc2cc(-n3c(=O)cc(C(F)(F)F)n(C)c3=O)c(F)cc2Cl)N(C)C1=O (stereo not shown) [Compound 119]', 'SETVI (Foxtail, Green)', 2.0),
  ('CC(C)COC(=O)CN1C(=O)CSC1=Nc1cc(-n2c(=O)cc(C(F)(F)F)n(C)c2=O)c(F)cc1Cl [Compound 121]', 'SETVI (Foxtail, Green)', 7.0);

Moving on to another molecule below.
For this molecule ( C#CCOC(=O)CC1SC(=Nc2cc(-n3c(=O)cc(C(F)(F)F)n(C)c3=O)c(F)cc2Cl)N(CC=C)C1=O (stereo not shown) [Compound 67] ), measured Preemergence herbicidal rating SETVI is 0.0

Cited source: patent US20020137929A1
